Taken from paper PMC12311259.

- target or system: human 5-HT2BR (Homo sapiens, UniProt P41595)
- Construct: 355260 (IP1)
- Sequence (P41595 whole entry): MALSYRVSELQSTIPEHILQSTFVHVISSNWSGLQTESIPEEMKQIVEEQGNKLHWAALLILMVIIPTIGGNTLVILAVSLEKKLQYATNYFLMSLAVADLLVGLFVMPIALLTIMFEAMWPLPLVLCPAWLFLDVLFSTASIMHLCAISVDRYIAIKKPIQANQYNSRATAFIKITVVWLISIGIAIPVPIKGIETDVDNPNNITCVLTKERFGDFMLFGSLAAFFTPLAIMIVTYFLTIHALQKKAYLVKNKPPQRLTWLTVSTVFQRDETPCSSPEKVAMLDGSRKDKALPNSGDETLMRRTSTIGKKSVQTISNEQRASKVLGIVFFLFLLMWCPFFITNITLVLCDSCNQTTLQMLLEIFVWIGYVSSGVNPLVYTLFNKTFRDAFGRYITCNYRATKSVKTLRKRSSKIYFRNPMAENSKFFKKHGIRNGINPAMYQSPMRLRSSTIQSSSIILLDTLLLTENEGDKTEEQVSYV
- assay info: Functionality assay, HTRF quantification of IP1 accumulation in CHO-K1 cells
- assay context: inhibition of 5-HT (5 nM) induced IP1 response, CHO-K1; read-out: IC50, antagonistic activity, human 5-HT2B
measured attribute: IC50 (nM)
Give the quantity in nM, number only.

Exercise: Which value of IC50 has been reported for `C[C@@H]1CN(C(=N)N)N=C1c1ccc(F)cc1O` in the records?
Key: 5.8

---

- target or system: human 5-HT2AR (Homo sapiens)
- Sequence (P28223 whole entry): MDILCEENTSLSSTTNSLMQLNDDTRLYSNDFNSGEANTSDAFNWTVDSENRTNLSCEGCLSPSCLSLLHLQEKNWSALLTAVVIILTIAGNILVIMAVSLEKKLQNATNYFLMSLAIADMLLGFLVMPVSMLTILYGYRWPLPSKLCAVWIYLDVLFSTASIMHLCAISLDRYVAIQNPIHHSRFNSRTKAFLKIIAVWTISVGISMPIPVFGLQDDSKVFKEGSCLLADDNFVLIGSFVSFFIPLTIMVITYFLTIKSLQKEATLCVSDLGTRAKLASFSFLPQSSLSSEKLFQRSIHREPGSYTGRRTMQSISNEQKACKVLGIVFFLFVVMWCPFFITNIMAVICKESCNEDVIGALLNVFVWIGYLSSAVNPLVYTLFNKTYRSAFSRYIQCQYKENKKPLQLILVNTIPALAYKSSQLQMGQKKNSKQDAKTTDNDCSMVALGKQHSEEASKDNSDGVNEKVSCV
measured attribute: Ki (nM)
Give the quantity in nM, number only.

Exercise: Which value of Ki has been reported for `C[C@@H]1CN(C(=N)N)N=C1c1ccc(F)cc1O` in the records?
Key: 800
